B1: EEHEE_rd4_0363 (parent)
chain: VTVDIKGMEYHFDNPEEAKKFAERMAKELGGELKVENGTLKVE

variants of: B1; assay: folding stability dG (cDNA display proteolysis); higher = more stable; settings: PBS, room temperature
MEASURED QUANTITY: folding stability dG (kcal/mol)
Note: unit kcal/mol is implicit; provide only the numeric part.

Worked examples follow.
E17P = -0.343
V3K = -0.032
K27P = 0.089
G31K = 0.977
M8W = 1.78

Per the record, K41E has folding stability dG of 0.957

Per the record, L40E has folding stability dG of 0.788

Per the record, L29K has folding stability dG of 0.78

Per the record, G38T has folding stability dG of 1.17

Per the record, M25V has folding stability dG of 1.44

Per the record, G31F has folding stability dG of 2.03

Per the record, E43P has folding stability dG of 1.16
